The measured values listed here are drawn from paper PMC6299481.

Please provide measured MIC for the entries that follow.
# System: E. coli DH10B pBC SK blaPDC-3
# Method description: MIC, MH agar dilution (CLSI)
# Type: cell-based
# Reported conditions: Escherichia coli, read-out: MIC value, β-lactam alone; E. coli DH10B pBC SK blaPDC-3
Give bare numbers, in µg/mL.

- Mol smiles: "CO/N=C(\\C(=O)N[C@@H]1C(=O)N2C(C(=O)O)=C(COC(C)=O)CS[C@H]12)c1csc(N)n1"
  Unit tag: "µg/mL"
  MIC: 8
- Mol smiles: "Cn1c(N)c(NC(=O)NCCN)c[n+]1CC1=C(C(=O)O)N2C(=O)[C@@H](NC(=O)/C(=N\\OC(C)(C)C(=O)[O-])c3nsc(N)n3)[C@H]2SC1"
  Unit tag: "µg/mL"
  MIC: 0.5
- Mol smiles: "C[C@H]1[C@H](NC(=O)/C(=N\\OC(C)(C)C(=O)O)c2csc(N)n2)C(=O)N1S(=O)(=O)O"
  Unit tag: "µg/mL"
  MIC: 1

Go through the items and report each one's MIC.
1. C[C@@H](O)[C@H]1C(=O)N2C(C(=O)O)=C(SCCN=CN)C[C@H]12
2. CC(C)(O/N=C(\C(=O)N[C@@H]1C(=O)N2C(C(=O)[O-])=C(C[n+]3ccccc3)CS[C@H]12)c1csc(N)n1)C(=O)O

1. 0.25
2. 2
